Measurement record for Galectin-3 (Homo sapiens); quantity recorded: pIC50.
Here pIC50 is given on a logarithmic scale as minus log10 of the concentration in mol/L.

# molecule, reportedResult
records = [
    ("CO[C@@H]1[C@@H](n2cc(-c3cc(F)c(F)c(F)c3)nn2)[C@@H](O)[C@@H](CO)O[C@H]1C(=O)N(c1cc(C)cc(Br)c1)[C@H]1CC[C@@H]1O [US20230348442, Example 2.1.12]", 6.95),
]

Request: Query pIC50 on Galectin-3 (Homo sapiens) for CO[C@@H]1[C@@H](n2cc(-c3cc(F)c(Br)c(F)c3)nn2)[C@@H](O)[C@@H](CO)O[C@H]1C(=O)N(c1cc(Br)cc(C#N)c1)[C@H]1CCC[C@@H]1O [US20230348442, Example 1.6.5]
Sequence (P17931 whole entry): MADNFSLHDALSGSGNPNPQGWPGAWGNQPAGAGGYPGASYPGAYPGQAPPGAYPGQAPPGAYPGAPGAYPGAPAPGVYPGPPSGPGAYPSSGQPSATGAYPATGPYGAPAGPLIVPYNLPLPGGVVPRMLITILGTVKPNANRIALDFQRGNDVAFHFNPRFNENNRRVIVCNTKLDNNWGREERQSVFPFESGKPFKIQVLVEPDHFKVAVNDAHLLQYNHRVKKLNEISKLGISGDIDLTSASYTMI
Response: 7.59
